The reported numbers originate from patent US20250250284A1.

The compounds listed here are annotated with their IC50.
- Tested on: KRAS G12C-BRAF complex (Homo sapiens (Human), UniProt P01116+P62937, G12C)
- Sequence (P01116-2 other isoform, or with tags, fused parts or gaps G12C): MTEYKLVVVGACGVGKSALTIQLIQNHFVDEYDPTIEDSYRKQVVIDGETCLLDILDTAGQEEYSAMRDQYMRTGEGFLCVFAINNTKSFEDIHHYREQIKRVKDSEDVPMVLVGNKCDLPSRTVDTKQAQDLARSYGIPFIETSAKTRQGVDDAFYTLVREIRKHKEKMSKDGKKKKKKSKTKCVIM
- Sequence (P62937 whole entry): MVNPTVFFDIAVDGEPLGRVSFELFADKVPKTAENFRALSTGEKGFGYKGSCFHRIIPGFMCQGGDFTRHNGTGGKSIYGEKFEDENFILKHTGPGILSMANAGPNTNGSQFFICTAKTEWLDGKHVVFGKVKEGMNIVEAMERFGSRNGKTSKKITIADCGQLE
- Experiment: KRAS-BRAF with CYPA (500 nM) interaction assay (TR-FRET), G12C
- Assay type: binding
- Test parameters: GMPPNP loaded 6His-KRAS, GST-BRAF RBD, 3 hours
# output: bare number, implied unit µM

Observe how each entry below is paired with its result.
Compound	Tested on	IC50 [µM]
CCn1c(-c2cc(N3CCN(C)CC3)cnc2[C@H](C)OC)c2c3cc(c(F)cc31)-c1csc(n1)C[C@H](NC(=O)[C@H]1[C@@H]3COC[C@@H]31)C(=O)N1CCC[C@H](N1)C(=O)OCC(C)(C)C2 (atropisomer, axis not shown; (M)) [Example 2]	KRAS G12C-BRAF complex (Homo sapiens (Human), UniProt P01116+P62937, G12C)	0.134
CO[C@@H](C)c1ncc(N2CCN(C)CC2)cc1-c1c2c3cc(c(F)cc3n1CC(F)(F)F)-c1csc(n1)C[C@H](NC(=O)[C@H]1C[C@@H]1C)C(=O)N1CCC[C@H](N1)C(=O)OCC(C)(C)C2 (atropisomer, axis not shown; (M)) [Example 4]	KRAS G12C-BRAF complex (Homo sapiens (Human), UniProt P01116+P62937, G12C)	0.036
CCn1c(-c2cc(N3CCN(C)CC3)cnc2[C@H](C)OC)c2c3cc(c(F)cc31)-c1csc(n1)C[C@H](NC(=O)[C@H]1C[C@@H]1C)C(=O)N1CCC[C@H](N1)C(=O)OCC(C)(C)C2 (atropisomer, axis not shown; (M)) [Example 1]	KRAS G12C-BRAF complex (Homo sapiens (Human), UniProt P01116+P62937, G12C)	0.108
CCn1c(-c2cc(N3CCN(CC(F)(F)F)CC3)cnc2[C@H](C)OC)c2c3cc(c(F)cc31)-c1csc(n1)C[C@H](NC(=O)[C@H]1C[C@@H]1C)C(=O)N1CCC[C@H](N1)C(=O)OCC(C)(C)C2 (atropisomer, axis not shown; (M)) [Example 7]	KRAS G12C-BRAF complex (Homo sapiens (Human), UniProt P01116+P62937, G12C)	0.192

INPUT: Recorded IC50 of CO[C@@H](C)c1ncc(N2CCN(C)CC2)cc1-c1c2c3c(F)c(ccc3n1CC(F)(F)F)-c1csc(n1)C[C@H](NC(=O)[C@H]1C[C@@H]1C)C(=O)N1CCC[C@H](N1)C(=O)OCC(C)(C)C2 (atropisomer, axis not shown; (M)) [Example 10] , please.
OUTPUT: 0.009
